Assay: PTX pharmacokinetics in rats, alone or orally co-administered with compound 4
Format: in vivo, Sprague-Dawley rats
Details: male, Sprague-Dawley, rat, plasma, PTX 25 mg/kg PO alone (oral control)

>  <compound>
CC(=O)O[C@H]1C(=O)[C@@]2(C)[C@H]([C@H](OC(=O)c3ccccc3)[C@]3(O)C[C@H](OC(=O)[C@H](O)[C@@H](NC(=O)c4ccccc4)c4ccccc4)C(C)=C1C3(C)C)[C@]1(OC(C)=O)CO[C@@H]1C[C@@H]2O [PTX, Paclitaxel]

>  <unit-abbreviation>
ng/mL

>  <Cmax>
189

$$$$

###

# cell survival ratio per entry
System: MCF-7/ADR cells
Assay: Cytotoxicity (toxic effect) of each piperazine derivative alone, SRB assay
Type: cell-based, human
Details: 10 μM, 2 h incubation
measured-parameter: cell survival ratio

>  <compound>
O=C(CN(CC(=O)N1CCN(C(c2ccccc2)c2ccc(Cl)cc2)CC1)C(=O)c1ccc2ccccc2c1)Nc1nc(-c2ccc(Cl)cc2)cs1 (stereo not drawn) [Compound 3]

>  <target-or-system>
MCF-7/ADR cells

>  <measured-parameter>
cell survival ratio

>  <value>
101.69

$$$$
>  <compound>
O=C(CN(CC(=O)N1CCN(C(c2ccccc2)c2ccc(Cl)cc2)CC1)C(=O)Cc1ccccc1)Nc1nc(-c2ccc(Cl)cc2)cs1 (stereo not drawn) [Compound 2]

>  <target-or-system>
MCF-7/ADR cells

>  <measured-parameter>
cell survival ratio

>  <value>
102.87

$$$$
>  <compound>
COc1ccc(CNC(=O)CN(CC(=O)N2CCN(C(c3ccccc3)c3ccc(Cl)cc3)CC2)C(=O)c2ccccc2)cc1 (stereo not drawn) [Compound 5]

>  <target-or-system>
MCF-7/ADR cells

>  <measured-parameter>
cell survival ratio

>  <value>
87.22

$$$$
>  <compound>
CC(C)(C)c1cc(NC(=O)CN(CC(=O)N2CCN(C(c3ccccc3)c3ccc(Cl)cc3)CC2)C(=O)c2ccccc2)no1 (stereo not drawn) [Compound 6]

>  <target-or-system>
MCF-7/ADR cells

>  <measured-parameter>
cell survival ratio

>  <value>
101.38

$$$$
>  <compound>
O=C(CN(CC(=O)N1CCN(C(c2ccccc2)c2ccc(Cl)cc2)CC1)C(=O)c1ccc2ccccc2c1)NCc1ccccc1 (stereo not drawn) [Compound 1]

>  <target-or-system>
MCF-7/ADR cells

>  <measured-parameter>
cell survival ratio

>  <value>
90.47

$$$$
>  <compound>
CC(=O)N(CC(=O)Nc1nc(-c2ccc(Br)cc2)cs1)CC(=O)N1CCN(C(c2ccccc2)c2ccc(Cl)cc2)CC1 (stereo not drawn) [Compound 4]

>  <target-or-system>
MCF-7/ADR cells

>  <measured-parameter>
cell survival ratio

>  <value>
98.50

$$$$

###

# cell survival ratio per record follows
System: MCF-7/ADR cells
Experiment: Cytotoxicity (toxic effect) of each piperazine derivative alone, SRB assay
Format: cell-based, human
Settings: 25 μM, 2 h incubation

>  <molecule>
O=C(CN(CC(=O)N1CCN(C(c2ccccc2)c2ccc(Cl)cc2)CC1)C(=O)Cc1ccccc1)Nc1nc(-c2ccc(Cl)cc2)cs1 (stereo not drawn) [Compound 2]

>  <cell survival ratio>
86.94

$$$$
>  <molecule>
CC(=O)N(CC(=O)Nc1nc(-c2ccc(Br)cc2)cs1)CC(=O)N1CCN(C(c2ccccc2)c2ccc(Cl)cc2)CC1 (stereo not drawn) [Compound 4]

>  <cell survival ratio>
96.14

$$$$
>  <molecule>
O=C(CN(CC(=O)N1CCN(C(c2ccccc2)c2ccc(Cl)cc2)CC1)C(=O)c1ccc2ccccc2c1)Nc1nc(-c2ccc(Cl)cc2)cs1 (stereo not drawn) [Compound 3]

>  <cell survival ratio>
102.24

$$$$

###

Assay: PTX pharmacokinetics in rats, alone or orally co-administered with compound 4
Type: in vivo, Sprague-Dawley rats
Conditions: male, Sprague-Dawley, rat, plasma, PTX 25 mg/kg PO alone (oral control), read-out: ke of PTX (converted)
measured-parameter: k el (s⁻¹)

>  <structure-smiles-string>
CC(=O)O[C@H]1C(=O)[C@@]2(C)[C@H]([C@H](OC(=O)c3ccccc3)[C@]3(O)C[C@H](OC(=O)[C@H](O)[C@@H](NC(=O)c4ccccc4)c4ccccc4)C(C)=C1C3(C)C)[C@]1(OC(C)=O)CO[C@@H]1C[C@@H]2O

>  <value>
6.47e-05

$$$$

###

Assay: PTX pharmacokinetics in rats, alone or orally co-administered with compound 4
Assay type: in vivo, Sprague-Dawley rats
Details: male, Sprague-Dawley, rat, plasma, PTX 2 mg/kg IV (IV control), read-out: ke of PTX (converted)

>  <structure-smiles-string>
CC(=O)O[C@H]1C(=O)[C@@]2(C)[C@H]([C@H](OC(=O)c3ccccc3)[C@]3(O)C[C@H](OC(=O)[C@H](O)[C@@H](NC(=O)c4ccccc4)c4ccccc4)C(C)=C1C3(C)C)[C@]1(OC(C)=O)CO[C@@H]1C[C@@H]2O

>  <k el (s⁻¹)>
0.000103

$$$$

###

Test: PTX pharmacokinetics in rats, alone or orally co-administered with compound 4
Format: in vivo, Sprague-Dawley rats
Conditions: male, Sprague-Dawley, rat, plasma, PTX 25 mg/kg PO alone (oral control), read-out: Vz/F of PTX
measured-parameter: Vd/F (L)

>  <structure-smiles-string>
CC(=O)O[C@H]1C(=O)[C@@]2(C)[C@H]([C@H](OC(=O)c3ccccc3)[C@]3(O)C[C@H](OC(=O)[C@H](O)[C@@H](NC(=O)c4ccccc4)c4ccccc4)C(C)=C1C3(C)C)[C@]1(OC(C)=O)CO[C@@H]1C[C@@H]2O

>  <measured-parameter>
Vd/F

>  <value>
40.6

$$$$

###

Test: PTX pharmacokinetics in rats, alone or orally co-administered with compound 4
Assay type: in vivo, Sprague-Dawley rats
Conditions: male, Sprague-Dawley, rat, plasma, PTX 25 mg/kg PO alone (oral control), read-out: AUCinf of PTX
measured-parameter: AUC(0-inf) (ng·h/mL)

>  <molecule>
CC(=O)O[C@H]1C(=O)[C@@]2(C)[C@H]([C@H](OC(=O)c3ccccc3)[C@]3(O)C[C@H](OC(=O)[C@H](O)[C@@H](NC(=O)c4ccccc4)c4ccccc4)C(C)=C1C3(C)C)[C@]1(OC(C)=O)CO[C@@H]1C[C@@H]2O [PTX, Paclitaxel]

>  <unit-abbreviation>
ng·h/mL

>  <value>
745

$$$$

Data credit: paper PMC6359037
